- test.system: SARS-CoV-2 spike on pseudovirus or live virus (USA-WA1/2020, WT) (SARS-CoV-2, UniProt P0DTC2 14-1273)
- experimental.details: cell-based or functional assay
Exam item: assign Criterion met to entries whose PSV neutralization IC50 is below 0.5 µg/mL and Criterion not met to entries at or above 0.5 µg/mL. Note that a value of exactly 0.5 µg/mL receives Criterion not met.

[ask] Hi there! Is PSV neutralization IC50 for L6.dP03H10 (antibody, V domains shown) VH: QVQLVQSGAEVKKPGSSVKVSCKASGGTFSIYAITWVRQAPGQGLEWMGGIIPIIGTANYAQKFQGRVTITADKSTSTAYMELSSLRSEDTAVYYCARDFRYCSSTRCYFWFDPWGQGTLVTVSS VL: DIQMTQSPSSLSASVGDRVTITCRASQNISSYLNWYQQEAGKAPKLLIYAASSLQSGVPSRFSGSGSGTDFTLTISSLQPEDFATYYCQQSYSTPRTFGQGTKVDIK below 0.5 µg/mL, do you know?
[reply] Criterion met

[ask] Hi there! Is PSV neutralization IC50 for L12.cP08D10 (antibody, V domains shown, human IgG1) VH: EVQLVQSGAEVKKPGASVKVSCKASGYIFSGYYMHWVRQAPGQGLEWMGWISPDSGGTNYAQNFQGRVTMTRDTSISTGYMELSRLRSDDTAMYYCARGPRYSGTYFDYWGQGVLVTVSS VL: QSVLTQPASVSGSPGQSITISCTGTSSDVGGYNYVSWYQQHPGKVPKLMIYDVSNRPSGVSNRFSGSKSGNTASLTISGLQAEDEADYYCSSYTSSSAQVFGGGTKLTVL below 0.5 µg/mL, do you know?
[reply] Criterion not met

[ask] Hi there! Is PSV neutralization IC50 for L12.cP08A09 (antibody, V domains shown, human IgG1) VH: QVQLVQSGAEVKKPGASVKVSCKASGYIYSGYYMHWVRQAPGQGLEWMGWISPDSGGTNYAQRFQGRVTMTRDTSTTTAYMELSRLRSDDTAVYYCARGPRYSGTYFDYWGQGTLVTVSS VL: QSALTQPASVSGSPGQSITISCTGTSSDVGGYNYVSWYQQHPDKAPKLMIYDVSNRPSGVSNRFSGSKSGNTASLTISGLQAEDEADYYCSSYTSGSTQVFGGGTKLTVL below 0.5 µg/mL, do you know?
[reply] Criterion not met

Consider the additional binder presented here.
[ask] Hi there! Is PSV neutralization IC50 for L6.dP02E05 (antibody, V domains shown, human IgG1) VH: QVQLVQSGSELKKPGASVKVSCKASGYTFATYALNWVRQAPGQGLEWMGWVNTNTGSPTYAQGFTGRFVFSFDTSVSTAYLQIRTLKAEDTAVYYCAVYYYDSGSPGWFDPWGQGTLVTVSS VL: DIQLTQSPSSLSASVGDRVTITCRASQTASSYLNWYQQKPGKAPNLLIYAASSLQSGVPSRFSGSGSVTDFTLTISSLQPEDFATYYCQQSYSTPPTFGQGTKVDIK below 0.5 µg/mL, do you know?
[reply] Criterion met
